- Target: Androgen receptor (Homo sapiens)
- Sequence (P10275 whole entry): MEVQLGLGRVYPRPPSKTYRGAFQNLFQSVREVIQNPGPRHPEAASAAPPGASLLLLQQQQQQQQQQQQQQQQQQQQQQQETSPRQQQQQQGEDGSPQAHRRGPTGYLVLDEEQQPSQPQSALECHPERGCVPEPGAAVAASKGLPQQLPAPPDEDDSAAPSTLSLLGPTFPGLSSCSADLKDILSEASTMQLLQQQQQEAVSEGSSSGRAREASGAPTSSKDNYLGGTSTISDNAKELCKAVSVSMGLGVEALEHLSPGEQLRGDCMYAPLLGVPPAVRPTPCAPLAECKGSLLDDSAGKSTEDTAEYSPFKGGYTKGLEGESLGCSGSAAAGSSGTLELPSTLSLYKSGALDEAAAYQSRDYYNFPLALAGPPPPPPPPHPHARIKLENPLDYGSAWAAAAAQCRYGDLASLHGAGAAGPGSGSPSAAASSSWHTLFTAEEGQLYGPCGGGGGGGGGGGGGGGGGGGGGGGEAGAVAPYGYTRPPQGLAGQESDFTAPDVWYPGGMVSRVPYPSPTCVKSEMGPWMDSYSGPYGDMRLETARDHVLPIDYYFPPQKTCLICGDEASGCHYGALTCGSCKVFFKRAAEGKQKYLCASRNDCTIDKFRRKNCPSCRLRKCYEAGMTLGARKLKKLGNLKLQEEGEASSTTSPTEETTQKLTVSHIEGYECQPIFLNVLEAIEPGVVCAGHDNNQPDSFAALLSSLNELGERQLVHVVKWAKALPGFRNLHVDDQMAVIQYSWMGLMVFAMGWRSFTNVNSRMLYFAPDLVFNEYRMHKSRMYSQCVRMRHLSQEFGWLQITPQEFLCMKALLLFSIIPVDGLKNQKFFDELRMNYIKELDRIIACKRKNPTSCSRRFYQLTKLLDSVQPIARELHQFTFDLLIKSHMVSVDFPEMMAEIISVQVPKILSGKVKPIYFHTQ
- Test Protocol: Agonist activity at androgen receptor expressed in human LNAR cells as induction of luciferase activity by spectrophotometry relative to untreated control; note: test concentration or dose not given here
- Type: functional, cell-based
// boundary case: fold change (FC) equal to 1 maps to condition not met; strictly smaller maps to condition met

• CC1(C)CN(CC#N)C(=O)[C@@H]1Oc1ccc(C#N)c(C(F)(F)F)c1 = condition not met
• CC(c1nnc(-c2cccc(F)c2)o1)N1CC(C)(C)C(Oc2ccc(C#N)c(C(F)(F)F)c2)C1=O (racemic) = condition not met
• CC(O)CN1CC(C)(C)[C@@H](Oc2ccc(C#N)c(C(F)(F)F)c2)C1=O (single isomer, unassigned) = condition met
• CC1(C)CN(CCC#N)C(=O)[C@@H]1Oc1ccc(C#N)cc1 = condition met
• C[C@@H](c1nnc(-c2ccccc2)o1)N1CC(C)(C)[C@@H](Oc2ccc(C#N)c(C(F)(F)F)c2)C1=O = condition not met
• CC(O)(CO)CN1CC(C)(C)[C@@H](Oc2ccc(C#N)c(C(F)(F)F)c2)C1=O (stereo in doubt; 25) = condition met
• CC(CO)CN1CC(C)(C)[C@@H](Oc2ccc(C#N)c(C(F)(F)F)c2)C1=O (stereo in doubt; 23) = condition met
• CC1(C)CNC(=O)[C@@H]1Oc1ccc(C#N)c(C(F)(F)F)c1 = condition not met
• CC1(C)CN(CCCO)C(=O)[C@@H]1Oc1ccc(C#N)c(C(F)(F)F)c1 = condition not met
• Cc1nnc(CN2CC(C)(C)[C@@H](Oc3ccc(C#N)c(C(F)(F)F)c3)C2=O)o1 = condition met
• CC1(C)CN(Cc2nnc(-c3ccccc3)o2)C(=O)[C@@H]1Oc1ccc(C#N)c(C(F)(F)F)c1 = condition met
• CCCCN1CC(C)(C)[C@@H](Oc2ccc(C#N)c(C(F)(F)F)c2)C1=O = condition not met
• CC1(C)CN(CCO)C(=O)[C@@H]1Oc1ccc(C#N)c(C(F)(F)F)c1 = condition not met
• CNC(=O)CN1CC(C)(C)C(Oc2ccc(C#N)c(C(F)(F)F)c2)C1=O (racemic) = condition met
• CC(C)(O)CN1CC(C)(C)[C@@H](Oc2ccc(C#N)c(C(F)(F)F)c2)C1=O = condition met
• CC1(C)CN(CCC#N)C(=O)[C@@H]1Oc1cnc(C#N)c(C(F)(F)F)c1 = condition met
• COC(=O)CN1CC(C)(C)C(Oc2ccc(C#N)c(C(F)(F)F)c2)C1=O (racemic) = condition not met
• CC1(C)CN(CCC#N)C(=O)[C@@H]1Oc1ccc(C#N)c(C(F)(F)F)c1 = condition met
• CCCN1CC(C)(C)[C@@H](Oc2ccc(C#N)c(C(F)(F)F)c2)C1=O = condition not met
• CC1(C)CN(C(C)(C)CO)C(=O)[C@@H]1Oc1ccc(C#N)c(C(F)(F)F)c1 = condition met
• CC1(C)CN(CCC#N)C(=O)[C@@H]1Oc1cc(C(F)(F)F)c(C#N)cn1 = condition not met
• CC(=O)CN1CC(C)(C)[C@@H](Oc2ccc(C#N)c(C(F)(F)F)c2)C1=O = condition met
• CC(CO)N1CC(C)(C)[C@@H](Oc2ccc(C#N)c(C(F)(F)F)c2)C1=O (stereo in doubt; 14) = condition not met

====

- Target: Androgen receptor (Homo sapiens)
- Test Protocol: Antagonist activity at androgen receptor expressed in human LNAR cells assessed as inhibition of R1881-induced luciferase activity by spectrophotometry
Property Name: IC50

* CC1(C)CN(Cc2nnc(-c3ccccc3)o2)C(=O)[C@@H]1Oc1ccc(C#N)c(C(F)(F)F)c1 | 71 nM
* CC1(C)CN(CCC#N)C(=O)[C@@H]1Oc1ccc(C#N)c(Cl)c1 | 68 nM
* CC(CO)CN1CC(C)(C)[C@@H](Oc2ccc(C#N)c(C(F)(F)F)c2)C1=O (stereo in doubt; 23) | 371 nM
* COC(=O)CN1CC(C)(C)C(Oc2ccc(C#N)c(C(F)(F)F)c2)C1=O (racemic) | 303 nM
* CC1(C)CN(C(C)(C)CO)C(=O)[C@@H]1Oc1ccc(C#N)c(C(F)(F)F)c1 | 761 nM
* CC1(C)CN(CCO)C(=O)[C@@H]1Oc1ccc(C#N)c(C(F)(F)F)c1 | 263 nM
* Cc1nnc(CN2CC(C)(C)[C@@H](Oc3ccc(C#N)c(C(F)(F)F)c3)C2=O)o1 | 633 nM
